# testSummary: chemical genetic growth profiling, strain panel (AID 1159580);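 further: tested at 20 µM; growth read once vehicle control cultures reached saturation at 30 °C; 1 = growth at the plate median or of vehicle wells; lower values mean less growth of the strain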
# studyConditions: S. cerevisiae deletion strains, growth OD, locus YLR357W, strain rsc2, hits give low values
About 2,000 (36%) of roughly 5,500 compounds were called active. Another 18% or so got no clear call; they are omitted. This is one part of the list.
assayEndpoint: normalized growth
Give bare numbers.

Consider the reported normalized growth for these compounds:
compound | normalized growth
CNCCC=C1c2ccccc2CCc2ccccc21 | 0.956
O=c1[nH]c2cc(Cl)c(Cl)cc2[nH]c1=O | 0.984
C[N+]1(CCCCC[N+]2(C)CCCC2)CCCC1 | 0.963
COc1ccc(-c2cc(=O)c3c(OC(C)=O)cc(OC(C)=O)cc3o2)cc1 | 0.894
CCN(CC)CCNc1ccc(CO)c2sc3ccccc3c(=O)c12 | 1.04

Please give normalized growth, item by item, for the list that follows.
1. CC1=C2C(=CO[C@H](C)[C@H]2C)C(=O)C(C(=O)O)=C1O
2. CC(=O)Oc1ccc(-c2cc(=O)c3c(OC(C)=O)cc(OC(C)=O)cc3o2)cc1
3. CN(C)CCC=C1c2ccccc2C=Cc2ccccc21

Output:
[1.01, 0.902, 1.01]

* * *

# testSummary: chemical genetic growth profiling, strain panel (AID 1159580);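 further: tested at 20 µM; growth read once vehicle control cultures reached saturation at 30 °C; 1 = growth at the plate median or of vehicle wells; lower values mean less growth of the strain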
# studyConditions: S. cerevisiae deletion strains, growth OD, locus YDR388W, hits give low values
In all, about 5,500 compounds went through this assay and about 2,000 (36%) were called active. Another 18% or so got no clear call; they are omitted. Some of the results follow.
Consider the following compounds; for each one, report its normalized growth.
Numbers only.

Consider the reported normalized growth for these compounds:
compound | normalized growth
CC1(C)O[C@@H]2CC3C4CCC5=CC(=O)C=C[C@]5(C)[C@@]4(F)[C@@H](O)C[C@]3(C)[C@]2(C(=O)CO)O1 (some centres undefined) | 0.997
CN(N=O)C(=O)N[C@@H]1[C@@H](O)[C@H](O)[C@@H](CO)O[C@@H]1O | 1.01
C=CCc1ccccc1OCC(O)CNC(C)C (centres undefined) | 1

Now for another entry.
Per the record, COC(=O)C[C@H]1C(C)(C)C(=O)[C@@H]2CC3=C4CC(OC)O[C@@H](c5ccoc5)[C@]4(C)CCC3[C@@]1(C)C2=O (some centres undefined) has normalized growth of 0.991

* * *

# testSummary: chemical genetic growth profiling, strain panel (AID 1159580);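 further: tested at 20 µM; growth read once vehicle control cultures reached saturation at 30 °C; 1 = growth at the plate median or of vehicle wells; lower values mean less growth of the strain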
# studyConditions: S. cerevisiae deletion strains, growth OD, locus YNL322C, strain KRE1 (second series), hits give low values
The whole screen tested about 5,500 compounds, of which about 2,000 (36%) were called active. Another 18% or so got no clear call; they are omitted. The list shows a part of the results.
assayEndpoint: normalized growth
Answers are plain numbers.

molecule | assayEndpoint | observedMeasurement
C[C@@H]1CC[C@@]2(OC1)OC1C(O)C3C4CC[C@H]5C[C@H](O[C@@H]6O[C@H](CO)[C@H](O[C@@H]7O[C@H](CO)[C@@H](O)[C@H](O[C@@H]8OC[C@@H](O)[C@H](O)[C@H]8O)[C@H]7O[C@@H]7O[C@H](CO)[C@H](O)[C@H](O[C@@H]8O[C@H](CO)[C@@H](O)[C@H](O)[C@H]8O)[C@H]7O)[C@H](O)[C@H]6O)[C@H](O)C[C@]5(C)C4CC[C@]3(C)C1[C@@H]2C (stereo partly drawn) | normalized growth | 1.04
O=c1cc(-c2ccc(O)cc2)oc2ccc(O)cc12 | normalized growth | 0.97
Nc1ccc(C(=O)O)c(O)c1 | normalized growth | 0.977
CC[C@]12C=CCN3CC[C@@]4(c5ccc(OC)cc5N(C)C4[C@@](O)(C(=O)OC)[C@@H]1OC(C)=O)[C@@H]32 (stereo partly drawn) | normalized growth | 0.987
COC(=O)C1=C(C)NC(C)=C(C(=O)OCCN(C)Cc2ccccc2)C1c1cccc([N+](=O)[O-])c1 (stereo not drawn) | normalized growth | 0.996
[N-]=[N+]=CC(=O)OCC(N)C(=O)O (stereo not drawn) | normalized growth | 0.999
O=C1c2c(O)ccc(O)c2C(=O)c2c(NCCNCCO)ccc(NCCNCCO)c21 | normalized growth | 0.933
O=c1c(-c2ccc(O)cc2)coc2cc(O)cc(O)c12 | normalized growth | 1.01
COc1cccc(-c2cc(=O)c3ccc(OC)cc3o2)c1 | normalized growth | 0.959
O=c1cc(-c2cccc(O)c2)oc2ccc(O)cc12 | normalized growth | 0.958

Please give normalized growth, item by item, for the list that follows.
1. CC(=O)Nc1ccc(O)cc1
2. COc1c(O)cccc1O
3. COc1c(O)cc2c(-c3ccccc3)cc(=O)oc2c1OC
4. S=c1ccss1
5. COc1cc2c3cc1Oc1cc(ccc1O)C[C@@H]1c4c(cc(OC)c(O)c4Oc4ccc(cc4)C[C@@H]3N(C)CC2)CC[N+]1(C)C
6. CC(C)(O)[C@@H]1CC[C@](C)([C@H]2[C@@H](O)C[C@@]3(C)C4C[C@H](O[C@@H]5O[C@H](CO)[C@@H](O)[C@H](O)[C@H]5O)C5C(C)(C)[C@@H](O[C@@H]6OC[C@@H](O)[C@H](O)[C@H]6O)CC[C@@]56C[C@@]46CC[C@]23C)O1 (stereo partly drawn)
7. C=CCCCCCCCCCCCC(O)CC(O)CO (stereo not drawn)

Output:
1: 1.02; 2: 1.02; 3: 0.982; 4: 0.99; 5: 0.984; 6: 0.989; 7: 0.981

Per the record, O=c1cc(-c2ccc(O)c(O)c2)oc2ccccc12 has normalized growth of 0.989
